Biological target: T1, ARHGEF11, O15085
T1 sequence (O15085 42-136, limits assumed, looked up): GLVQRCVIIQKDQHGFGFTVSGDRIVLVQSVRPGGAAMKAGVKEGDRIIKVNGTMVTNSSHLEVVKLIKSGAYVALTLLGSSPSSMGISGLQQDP
Assay: holdup assay
Design: key: below the threshold = too weak to quantify, mostly under pKd 3.1 to 4
Conditions: plain residues with an end cap or a label only (N-terminal biotin on a linker: ado-ado)
reported.property: pKd

LAHVKHKEQI [AQP3, Q92482]    below the threshold
DRIQSCLSDA [SBF1, O95248]    below the threshold
LPAVCYDIDI [PTTG2, Q9NZH5]    below the threshold
